assay: Surface tension measurements by pendant drop method in water (cmc and surface properties); assay type: physicochemical; settings: air-water interface
Amin (nominal surface area per molecule) values for the compounds below.

[
  {
    "compound": "CCCCCCCC/C=C\\CCCCCCCC(=O)NCCC[N+](C)(C)CCCC[N+](C)(C)CCCNC(=O)CCCCCCC/C=C\\CCCCCCCC.[Br-].[Br-]",
    "Amin (nominal surface area per molecule)": "0.73 nm^2"
  },
  {
    "compound": "CCCCCCCC/C=C\\CCCCCCCC(=O)NCCC[N+](C)(C)C/C=C\\C[N+](C)(C)CCCNC(=O)CCCCCCC/C=C\\CCCCCCCC.[Cl-].[Cl-]",
    "Amin (nominal surface area per molecule)": "1.01 nm^2"
  }
]

Need Amin (nominal surface area per molecule), item CCCCCCCC/C=C\CCCCCCCC(=O)NCCC[N+](C)(C)CCCCCC[N+](C)(C)CCCNC(=O)CCCCCCC/C=C\CCCCCCCC.[Br-].[Br-]
0.70 nm^2
